Listing of entries alongside the reported melting point.
quantity: melting point

• CC(C)(C)c1ccc(C(=O)Nc2cn3cc(-n4ccnc4)ccc3n2)cn1 = 242 to 245 °C
• O=C(Nc1cn2cc(Cl)ccc2n1)c1ccc(C2(C(=O)O)CC2)cc1 = 330 to 331 °C
• CC(C)(CO)c1ccc(C(=O)Nc2cn3cc(-c4ccoc4)ccc3n2)cc1 = 246 to 248 °C
• CC(C)(C)c1ccc(C(=O)Nc2cn3c4c(ccc3n2)OCC4)cn1 [Example 17] = 246 to 248 °C
• CC(C)(CCc1nnn[nH]1)c1ccc(C(=O)Nc2cn3cc(-n4ccnc4)ccc3n2)cc1 = 266 to 267 °C
• Cc1ccc2nc(NC(=O)c3ccc(C(C)(C)CCc4nnn[nH]4)cc3)cn2c1 = 245 to 246 °C
• CC(C)(C)c1ccc(C(=O)Nc2cn3cc(-c4ncc[nH]4)ccc3n2)cc1 = 300 to 301 °C
• Cc1cn(-c2ccc3nc(NC(=O)c4ccc(C(C)(C)C)cc4)cn3n2)c(C)n1 = 254 to 255 °C
• CCN(c1ccc(C(=O)Nc2cn3cc(Cl)ccc3n2)cc1)S(C)(=O)=O = 245 to 247 °C
• CC(C)(C)c1ccc(C(=O)Nc2cn3cc(-c4ccc[nH]4)ccc3n2)cc1 = 279 to 280 °C

src = patent US20100029619A1
